Tested on: U251 CNS
Assay: NCI-60 one-dose screen, 48 h
Settings: 10 µM
This is part of a sample that, as a whole, favours compounds with a hit. Of some 83,000 tested, about 20% had one in any assay. Activity calls are given as the source filed them. How the source made its calls: active means growth percent below 10; inactive means the rest.
Outcome (select one): active, inactive

**Q:** Tell me the assay call for "c1ccc(CNc2nc(Nc3ccc(-c4nc5ccccc5[nH]4)cc3)c3cn[nH]c3n2)cc1" please.
**A:** active

**Q:** What call does the record list for "N#CCC1CCCC1" ?
**A:** inactive

**Q:** Please share the test call associated with "Nc1nsc(C(=O)c2ccc(O)cc2)n1" .
**A:** inactive

**Q:** So what was the verdict on "O=C1/C(=C/c2ccc(O)cc2)CSc2ccc(Cl)cc21" in this test?
**A:** inactive

**Q:** What did the test return for CC1(CO)CCCC12OCCO2 (stereo not drawn) ?
**A:** inactive

**Q:** What classification did "C[C@]12CC[C@H]3[C@@H](CC=C4C[C@@H](O)CC[C@@]43C)[C@@H]1CC[C@@H]2C(=O)C/C=N/O" end up with in this test?
**A:** inactive

**Q:** Tell me the assay call for CN(C)c1ccc2cc(-c3cc4c(oc3=O)-c3ccccc3OC4O)c(=O)oc2c1 (stereo not drawn) please.
**A:** inactive

**Q:** Dear all, I need the recorded test outcome for "CC(C)c1ncc(CO)n1Cc1c(Cl)cccc1Cl" , thank you.
**A:** inactive

**Q:** What outcome does the record of this test show for "Cc1cnc(C=O)c2cccc([N+](=O)[O-])c12" ?
**A:** inactive

**Q:** Tell me the assay call for "Cc1cc(C(C)(C)CC(C)(C)C)ccc1OCCOCC[N+](C)(C)Cc1ccccc1" please.
**A:** active

**Q:** Check the results log: what was the call for CC(CNC(Cc1ccccc1)c1ccccc1)NC(Cc1ccccc1)c1ccccc1 (stereo not drawn) ?
**A:** inactive

**Q:** What classification did "N#Cc1ncc(-c2cc(F)ccc2F)c(NC2CCCCCC2)n1" end up with in this test?
**A:** active

**Q:** Assay result, entry "CCCn1c(=O)c2c(nc(-c3cccc(OCCCCl)c3)n2C)n(CCC)c1=O" — outcome?
**A:** inactive

**Q:** Hello, I am checking results. What call was entered for "CCOc1nc(-c2ccccc2)cc2c(O)c(C(=O)NC(C)C)[nH]c(=O)c12" ?
**A:** inactive

**Q:** Status in this test for "CCCc1c(CC)c(=N)c2ccccc2n1C" ?
**A:** inactive

**Q:** Could you kindly confirm the outcome this assay logged for "CCn1nc(-c2ccccn2)c2cccnc2c1=S" ?
**A:** inactive

**Q:** Hi team, can someone confirm the assay call for "COc1cc(OC)cc(-c2ccc(-c3ccc(C(=N)N)cn3)o2)c1" ?
**A:** active

**Q:** Please indicate how the test categorized Cc1cc(O)c(C2=NN(c3ccc(S(N)(=O)=O)cc3)C(c3ccc(N(C)C)cc3)C2)c(C)c1Cl (stereo not drawn) .
**A:** inactive

**Q:** Could you kindly confirm the outcome this assay logged for COc1cc(C(c2c[nH]c3ccccc23)N2CCCC2)ccc1OCc1ccccc1 (stereo not drawn) ?
**A:** inactive

**Q:** Which outcome did this test record for the compound "Cc1ccc(C)c(S(=O)(=O)NC2c3ccccc3Oc3ccccc32)c1" ?
**A:** inactive

**Q:** Dear colleague, could you share the recorded outcome for "COc1ccccc1S(=O)(=O)Nc1ccc2c(c1)CN(C)C(=O)N2" when you have a moment?
**A:** inactive

**Q:** Kindly provide the recorded test outcome for the following compound: "CC(=O)Nc1nc(C)c(C(=O)NNC=O)s1"
**A:** inactive

**Q:** Recorded test outcome, item "Cc1ccc(-n2c(-c3cc4c([nH]c5ccccc54)c(-c4cccc(O)c4)n3)n[nH]c2=S)cc1"
**A:** active

**Q:** What outcome does the record of this test show for "Cc1cccc2c(Nc3ccc(NS(C)(=O)=O)cc3)c3ccc([N+](=O)[O-])cc3nc12" ?
**A:** active

**Q:** Please state the recorded outcome for this compound: "COc1cc(-c2c(C#N)c(N)n3c(nc4ccccc43)c2C#N)cc(Br)c1OC"
**A:** inactive

**Q:** Test call, this compound: COc1cccc2c1C(=O)c1c(O)c3c(c(O)c1C2=O)C[C@@](O)(C(=O)COC(=O)c1ccccc1)C[C@@H]3OC1CC(N)C(O)C(C)O1 (stereo partly drawn)
**A:** active

**Q:** What outcome does the record of this test show for "CC(C)C[C@H](NC(=O)CCn1ccc2ccccc2c1=O)B(O)O" ?
**A:** inactive

**Q:** Tell me the assay call for "C=CCn1ccc(=O)nc1SC" please.
**A:** inactive

**Q:** I would be grateful if you could indicate the recorded call for "O=C(CCl)N1c2ccccc2Sc2ccc3ccccc3c21" .
**A:** active

**Q:** Fill in: this test's call for "COc1ccc(-c2nnc(COc3ccc(NC(=O)Nc4cccc(C(F)(F)F)c4)cc3F)o2)cc1" is ___
**A:** inactive

**Q:** For "CCOc1nc(-c2ccccc2)cc2c(O)c(C(=O)N/N=C/c3ccc(OC)cc3)[nH]c(=O)c12" , what call appears in the results of this test?
**A:** inactive

**Q:** // param item: "O=[N+]([O-])c1ccc(-c2nc(-c3ccccc3)c(-c3ccccc3)n2-c2ccccc2)cc1" ; yields the recorded call
**A:** inactive

**Q:** Each compound tested received a call. Report the one for "COc1ccccc1NC1=C(N2CCCCC2)C(=O)c2ccccc2C1=O" .
**A:** inactive

**Q:** So what was the verdict on "CNCCCNCCCN1C(=O)c2ccc3c4c(ccc(c24)C1=O)C(=O)N(CCCNCc1ccccc1OC)C3=O" in this test?
**A:** active

**Q:** Hello, I am checking results. What call was entered for "COc1ccc(C(=O)n2nc(CC(=O)NCc3ccccc3)nc2N)cc1" ?
**A:** inactive

**Q:** Hi team, can someone confirm the assay call for Nc1ccc(C2=CC(c3ccc(Cl)cc3)N3C=CSC3=N2)cc1 (stereo not drawn) ?
**A:** active

**Q:** Short answer needed: outcome of this test for "COc1cc(Cn2c(-c3ccccc3)c(Cl)c3c2-c2oncc2CC3)cc(OC)c1" ?
**A:** inactive

**Q:** Any idea what this test logged for CCCCCN(CCCCC)C(C)C(O)c1ccc2cc(Cl)c3ccccc3c2c1 (stereo not drawn) ?
**A:** inactive

**Q:** // outcome(item) with item = "O=C(Nc1cccc(F)c1)Nc1cccc(Cl)c1"
**A:** inactive

**Q:** Hi team, can someone confirm the assay call for "Cc1ccc(-c2cc(-c3cccc(Nc4ccnc5cc(Cl)ccc45)c3)nc3nc(N)[nH]c(=O)c23)cc1" ?
**A:** inactive

**Q:** Field: outcome | Entry: CC(=O)OC1Oc2ccccc2-c2oc(=O)c(-c3ccc(F)cc3)cc21 (stereo not drawn)
**A:** inactive

**Q:** # lookup: test call for "C=CCOc1ccc2c(c1)CC=C1[C@@H]2CC[C@]2(C)C(=O)/C(=N/O)C[C@@H]12"
**A:** inactive

**Q:** Identify the outcome logged in this assay for the compound shown: "COc1ccc(-c2csc(NC(=O)CO[N+](=O)[O-])n2)cc1"
**A:** inactive

----------
Tested on: MALME-3M melanoma
Assay: NCI-60 one-dose screen, 48 h (100 = growth as untreated, 0 = no growth, -100 = all killed)
Conditions: 10 µM
Experimental: Cells are grown in 96 well plates and exposed to the test compound for 48 hours. Compounds are tested at a single concentration, which is 10^-5 M for most compounds. The reported endpoint is percent growth (GI% or GIPRCNT), where numbers from 0 - 100% represent growth inhibition, and numbers from -100% - 0 represent cell death. For example, a value of 40 represents 60% growth inhibition. A value of 0 means no net growth occurred over the course of the experiment. […]
About 83,000 compounds went through this panel and 20% of them were active in at least one assay; those are over-represented in the sample as a whole.
measurement.label: growth (%)
The answer is to be given in %; state only the numeric part.

**Q:** # lookup: growth of "CCCCCCCCCCN=C(c1ccc(N(C)C)cc1)c1ccc(N(C)C)cc1"
**A:** 62

**Q:** Entry "C[N+]1=C(/C=C/c2ccc(I)cc2)C(C)(C)c2ccccc21" has what growth?
**A:** 86

**Q:** Which growth value belongs to "CCOC(=O)c1sc(Nc2ncccn2)nc1-c1ccccn1" ?
**A:** 107

**Q:** What growth value was documented for this molecule, "Clc1cc(Cl)c(Cl)c(-c2nc(-c3cccnc3)cs2)c1" ?
**A:** 28.6

**Q:** Name the reported growth value associated with the molecule "CCCCCCCOc1cccc(/C=C2/C(=O)N=C3SCCCN32)c1"
**A:** 81.6

**Q:** What value of growth has been recorded for this entry: "C/C(=N\NC(=S)N1CCCC1)c1ccccn1"
**A:** -8.16
